These data points were gathered from paper PMC8300687.

System: C. jejuni RDK 135 (ATCC 33560)
Assay: MIC broth microdilution, C. jejuni
Assay type: cell-based
Settings: Campylobacter jejuni, ATCC33560; read-out: MIC C. jejuni RDK 135 (ATCC 33560)
Below, each entry is listed alongside its reported MIC.
Reply with the number and its unit after it.

[in] Entry under review: COc1ccc(CNC2CCN(CCc3ccnc4ccc(OC)nc34)CC2)cn1 . Reported MIC?
[out] 2 µg/mL

[in] Entry under review: COc1ccc2nccc(CCN3CCC(NCc4ccc(OC(F)F)c(OC)c4)CC3)c2n1 . Reported MIC?
[out] 2 µg/mL

[in] Entry under review: COc1ccc2nccc(CCN3CCC(NCc4cnn(-c5ccccc5)c4)CC3)c2n1 . Reported MIC?
[out] 16 µg/mL

[in] Entry under review: COc1ccc2nccc(CCN3CCC(NCc4ccc(OC(F)F)c(O)c4)CC3)c2n1 . Reported MIC?
[out] 0.015 µg/mL

[in] Entry under review: COc1ccc2nccc(CCN3CCC(NCc4nc5ccccc5n4C)CC3)c2n1 . Reported MIC?
[out] 1 µg/mL

[in] Entry under review: COc1ccc2nccc(CCN3CCC(NCc4ccc(Cl)cc4)CC3)c2n1 . Reported MIC?
[out] 2 µg/mL

[in] Entry under review: COc1ccc2nccc(CCN3CCC(NCc4ccc(F)cc4)CC3)c2n1 . Reported MIC?
[out] 1 µg/mL

[in] Entry under review: COc1ccc2nccc(CCN3CCC(NCc4ccc(I)cc4)CC3)c2n1 . Reported MIC?
[out] 0.015 µg/mL

---

Below, each entry is listed alongside its reported solubility thermodynamic at 24 h.
Test: Equilibrium solubility at pH 6.8
Details: phosphate buffered saline, 37 °C, pH 6.8, aqueous buffer, thermodynamic from solid
Reply with the number and its unit after it.

Sample answers from the record:
COc1ccc2nccc(CCN3CCC(NCc4ccc(N(C)C)cc4)CC3)c2n1 ... 537 µg/mL
COc1ccc2nccc(CCN3CCC(NCc4ccc(C(F)(F)F)nc4)CC3)c2n1 ... 209 µg/mL

[in] Entry under review: COc1ccc2nccc(CCN3CCC(NCc4cnn(-c5ccccc5)n4)CC3)c2n1 . Reported solubility thermodynamic at 24 h?
[out] 106 µg/mL

[in] Entry under review: COc1ccc2nccc(CCN3CCC(NCc4ccccc4)CC3)c2n1 . Reported solubility thermodynamic at 24 h?
[out] 1370 µg/mL

[in] Entry under review: COc1ccc2nccc(CCN3CCC(NCc4nc5ccccc5n4C)CC3)c2n1 . Reported solubility thermodynamic at 24 h?
[out] 349 µg/mL

[in] Entry under review: COc1ccc2nccc(CCN3CCC(NCc4ccc(I)cc4)CC3)c2n1 . Reported solubility thermodynamic at 24 h?
[out] 184 µg/mL

[in] Entry under review: COc1ccc2nccc(CCN3CCC(NCc4c(C)nc5c(C)cccn45)CC3)c2n1 . Reported solubility thermodynamic at 24 h?
[out] 797 µg/mL

[in] Entry under review: C=CCn1cc(CNC2CCN(CCc3ccnc4ccc(OC)nc34)CC2)cn1 . Reported solubility thermodynamic at 24 h?
[out] 5700 µg/mL

[in] Entry under review: COc1ccc2nccc(CCN3CCC(NCc4ccc(C(N)=O)cc4)CC3)c2n1 . Reported solubility thermodynamic at 24 h?
[out] 560 µg/mL

---

Below, each entry is listed alongside its reported LE Topo IV E. coli.
Target: E. coli Topo IV (Escherichia coli, UniProt P0AFI2)
Construct: purchased Inspiralis (Norwich, UK)
Sequence (P0AFI2 whole entry): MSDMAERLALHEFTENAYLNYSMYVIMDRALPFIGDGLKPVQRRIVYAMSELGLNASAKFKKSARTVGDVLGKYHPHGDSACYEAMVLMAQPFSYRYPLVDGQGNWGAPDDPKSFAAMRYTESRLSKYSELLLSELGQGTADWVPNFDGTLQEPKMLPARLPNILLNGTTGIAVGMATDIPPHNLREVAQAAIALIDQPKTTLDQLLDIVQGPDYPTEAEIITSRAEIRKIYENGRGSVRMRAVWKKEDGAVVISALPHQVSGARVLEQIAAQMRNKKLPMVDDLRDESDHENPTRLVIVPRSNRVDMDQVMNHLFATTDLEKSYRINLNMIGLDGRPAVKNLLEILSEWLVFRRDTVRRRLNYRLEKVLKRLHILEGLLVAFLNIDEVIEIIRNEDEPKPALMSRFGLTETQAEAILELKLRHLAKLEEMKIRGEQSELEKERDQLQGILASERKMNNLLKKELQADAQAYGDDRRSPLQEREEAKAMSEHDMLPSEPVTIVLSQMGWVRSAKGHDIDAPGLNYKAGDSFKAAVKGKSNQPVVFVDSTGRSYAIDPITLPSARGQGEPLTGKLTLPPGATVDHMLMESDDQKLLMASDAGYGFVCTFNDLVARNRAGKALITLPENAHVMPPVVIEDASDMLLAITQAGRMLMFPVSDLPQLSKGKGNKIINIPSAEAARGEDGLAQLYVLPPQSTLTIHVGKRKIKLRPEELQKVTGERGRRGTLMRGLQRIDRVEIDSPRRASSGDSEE
Sequence (P20083 whole entry, further chain): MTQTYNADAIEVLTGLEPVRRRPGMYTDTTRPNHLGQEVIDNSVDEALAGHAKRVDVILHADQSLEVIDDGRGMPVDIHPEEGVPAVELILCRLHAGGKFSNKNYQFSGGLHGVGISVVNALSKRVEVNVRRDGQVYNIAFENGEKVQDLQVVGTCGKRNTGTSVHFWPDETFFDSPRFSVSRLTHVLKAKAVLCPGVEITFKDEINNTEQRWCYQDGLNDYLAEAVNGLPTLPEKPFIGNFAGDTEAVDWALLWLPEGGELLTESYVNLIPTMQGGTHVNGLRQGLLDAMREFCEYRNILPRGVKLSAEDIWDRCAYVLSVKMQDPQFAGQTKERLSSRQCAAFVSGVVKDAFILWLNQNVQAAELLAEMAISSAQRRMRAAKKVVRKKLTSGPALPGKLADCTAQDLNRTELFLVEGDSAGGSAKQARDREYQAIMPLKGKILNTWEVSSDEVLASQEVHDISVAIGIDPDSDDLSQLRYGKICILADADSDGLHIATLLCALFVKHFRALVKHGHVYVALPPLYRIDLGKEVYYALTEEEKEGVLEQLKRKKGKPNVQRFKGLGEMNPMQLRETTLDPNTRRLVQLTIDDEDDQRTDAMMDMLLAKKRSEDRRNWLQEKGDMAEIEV
Experiment: Topo IV Relaxation High Throughput Plate assay, E. coli
Assay type: biochemical
Details: LE = (1.37/HA) × pIC50
Form field (numeric): enter value without unit.

Sample answers from the record:
C=CCn1cc(CNC2CCN(CCc3ccnc4ccc(OC)nc34)CC2)cn1 ... 0.30
COc1ccc2nccc(CCN3CCC(NCc4ccc(OC(F)F)c(O)c4)CC3)c2n1 ... 0.30

[in] Entry under review: COc1ccc2nccc(CCN3CCC(NCc4cnn(C(C)C)c4)CC3)c2n1 . Reported LE Topo IV E. coli?
[out] 0.30
